Entries and their luminescence (RLU), PD-1/PD-L1 blockade bioassay values follow.
# target: human PD-1 on Jurkat Effector cells of the PD-1/PD-L1 blockade bioassay (Promega, Cat #J1255) (human, UniProt Q15116 25-288)
# Sequence (Q15116 25-288): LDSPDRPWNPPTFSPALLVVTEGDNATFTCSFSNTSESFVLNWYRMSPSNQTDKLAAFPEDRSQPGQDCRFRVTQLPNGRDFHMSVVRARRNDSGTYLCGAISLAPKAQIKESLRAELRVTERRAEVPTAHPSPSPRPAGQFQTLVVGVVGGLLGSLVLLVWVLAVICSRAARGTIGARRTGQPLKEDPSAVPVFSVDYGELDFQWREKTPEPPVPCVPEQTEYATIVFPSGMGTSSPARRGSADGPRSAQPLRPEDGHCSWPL
# assay.summary: cell-based or functional assay
value.kind: luminescence (RLU), PD-1/PD-L1 blockade bioassay

binder="OMC.1.B6-hIgG4 (antibody, V domains shown) VH: EVQLLESGGGLVQPGGSLRLSCAASGFTFSSNYMSWVRQAPGKGLEWVSAISSSGGTIFYADSVKGRFTISRDNSKNTLYLQMNSLRAEDTAVYYCAKHKWNAVYYDGMDVWGQGTTVTVSS VL: QSVLTQPPSASGTPGQRVTISCSGSNSNIGRNLVNWYQQLPGTAPKLLIYTIDQRPSGVPDRFSGSKSGTSASLVISGLQSEDEADYYCAAWDGSLNAWVFGGGTKLTVLG" endpoint_result="~3000 RLU"
binder="OMC.2.C6-hIgG4 (antibody, V domains shown) VH: EVQLLESGGGLVQPGGSLRLSCTASGFTFSSYEMQWVRQAPGKGLEWVLGITSSSSHIFYADSVKGRFTVSRDNSKNTLYLQMNSLRAEDTAVYYCTKDLNSYYGLDVWGQGTTVTVSS VL: QSVMTQPPSASGTPGQRVTISCSGSTSNLGNNYVSWYQHLPGTAPKLLIYGNDQRPSGVPDRFSGSKSGTSASLAISGLQSDDEADYYCSSWDASLNVWVFGGGTKLTVLG" endpoint_result="~3000 RLU"
binder="C51E6-5-hIgG4 (antibody, V domains shown) VH: QVQLVQSGSELKKPGASVKVSCKASGYSLYGTSMHWVRQAPGQGLEWMGYISPFTGRATYAQGFTGRFVFSLDTSVSTAYLQISSLKAEDTAVYYCARDYDYRYYYAMDYWGQGTTVTVSS VL: EIVLTQSPDFQSVTPKEKVTITCTASESVPPQFLHWYQQKPDQSPKLLIYASRERASGVPSRFSGSGSGTDFTLTINSLEAEDAATYYCHQFHRSPLTFGGGTKLEIKR" endpoint_result="~3000 RLU"

Ref: patent US20240076343A1
